TESTED ON: T1, human B7-H4 extracellular domain (human, UniProt Q7Z7D3 29-258)
T1 construct: Soluble ECD used as SPR analyte; also called huB7-H4 ECD; huB7-H4
T1 sequence: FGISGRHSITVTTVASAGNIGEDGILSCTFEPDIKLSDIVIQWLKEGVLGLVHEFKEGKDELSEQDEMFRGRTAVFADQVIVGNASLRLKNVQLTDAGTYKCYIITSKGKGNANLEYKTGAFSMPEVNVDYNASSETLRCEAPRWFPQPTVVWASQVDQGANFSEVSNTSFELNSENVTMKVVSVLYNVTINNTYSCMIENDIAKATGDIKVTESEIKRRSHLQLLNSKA
EXPERIMENTAL DETAILS: SPR 37 C; IgG1 on anti-hFc chip, ECD analyte;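 also: antibodies captured, then B7-H4 ECD injected at five 3-fold dilutions from 300 nM, 65 s association and 600 s dissociation, fitted to a 1:1 Langmuir model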
Exercise: for every item that follows, state its recorded Kd.
A complete answer gives the number followed by the unit.

Worked cases, Kd given:
BINDER	RECORDED VALUE
B7-H4 antibody 1080 (antibody, human IgG1, kappa, V domains shown, IgG1 mAb format) VH: EVQLVESGGGLVQPGGSLRLSCAVSGGSFSGYYWNWIRQPPGKGLEWIGEINHSGSATYNPSLKSRVTISVDTAKNSLYLQMNSLRAEDTAVYYCARGLYNWNVDHWGQGTLVTVSS VL: DIQMTQSPSSLSASVGDRVTITCRASQGIRNDLGWYQQKPGKAPKRLIYAASSLQSGVPSRFSGSGSGTDFTLTISSLQPEDFATYYCLQHNAYPRTFGGGTKVEIKR	13.8 nM
B7-H4 antibody 1113 (antibody, human IgG1, kappa, V domains shown, IgG1 mAb format) VH: EVQLLESGGGLVQPGGSLRLSCAASGFTFSSYAMSWVRQAPGKGLEWVSAISGGGGSTYYADSVKGRFTISRDNSKNTLYLQMNSLRAEDTAVYYCARDIQWYGESTLFDYWGQGTLVTVSS VL: DIQMTQSPSSLSASVGDRVTITCRASQSTRSWLAWYQQKPGKAPKLLIYKASSLEGGVPSRFSGSGSGTDFTLTISSLQPEDFATYYCQQYGSYSRTFGQGTKVEIKR	4.31 nM
B7-H4 antibody 1083 (antibody, human IgG1, kappa, V domains shown, IgG1 mAb format) VH: EVQLVESGGGLVQPGGSLRLSCAASGGSFSGYYWNWIRQPPGKGLEWIGEINHSGSATYNPSLKSRVTISVDTAKNSFYLQMNSLRAEDTAVYYCARGLYNWNVDHWGQGTLVTVSS VL: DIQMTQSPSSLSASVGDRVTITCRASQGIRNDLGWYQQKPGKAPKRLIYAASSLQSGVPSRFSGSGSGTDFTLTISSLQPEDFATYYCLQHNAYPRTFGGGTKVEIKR	22.6 nM

Okay, now this binder:
Answer with the recorded Kd for the binder listed here: B7-H4 antibody 0934 (antibody, human IgG1, kappa, V domains shown, IgG1 mAb format) VH: EVQLVESGGGLVQPGGSLRLSCAVSGGSFSGYYWNWVRQAPGKGLEWIGEINHSGSATYNPSLKSRVTISVDTAKNSLYLQMNSLRAEDTAVYYCARGLYNWNVDHWGQGTLVTVSS VL: DIQMTQSPSSLSASVGDRVTITCRASQGIRNDLGWYQQKPGKAPKRLIYAASSLQSGVPSRFSGSGSGTDFTLTISSLQPEDFATYYCLQHSSYPRTFGGGTKVEIKR
11.8 nM
